Task for the reader: assign each of the following compounds its reported pKi.
Target: UniProt Q07820
Sequence (Q07820 172-327): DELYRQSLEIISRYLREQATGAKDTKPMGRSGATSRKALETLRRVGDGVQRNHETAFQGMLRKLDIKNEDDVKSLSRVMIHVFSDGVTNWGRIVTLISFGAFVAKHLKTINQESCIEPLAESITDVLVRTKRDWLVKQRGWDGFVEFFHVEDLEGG
Experiment: Fluorescence polarization competition assay (FPCA), Mcl-1 / FITC-Bak BH3 peptide
Format: binding
Conditions: FPC assay; read-out: Mcl-1 Ki
Give bare numbers, as −log10 of the molar value.

- Compound: "O=C(O)C1Cc2ccccc2N(S(=O)(=O)c2ccccc2)C1 (racemic)"
  Metric: "pKi"
  Numeric result: 3.71

Asked: Determine from records and report pKi for O=C(O)C1Cc2ccccc2N(S(=O)(=O)c2ccc(Br)cc2)C1 (racemic)
Given back: 3.93

###

Task for the reader: assign each of the following compounds its reported pKi.
Target: Bcl-xL (Homo sapiens (Human))
Sequence (Q07817 whole entry): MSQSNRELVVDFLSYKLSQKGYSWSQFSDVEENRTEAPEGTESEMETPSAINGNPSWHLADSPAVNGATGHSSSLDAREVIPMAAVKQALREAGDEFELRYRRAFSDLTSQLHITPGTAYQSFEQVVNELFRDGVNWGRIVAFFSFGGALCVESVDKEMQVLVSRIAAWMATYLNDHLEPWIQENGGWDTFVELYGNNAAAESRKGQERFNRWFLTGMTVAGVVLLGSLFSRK
Experiment: Fluorescence polarization competition assay, Bcl-xL
Assay type: binding
Conditions: Ki from IC50 by Nikolovska-Coleska equation; NA = no activity; read-out: Bcl-xL Ki
Answers are plain numbers, as −log10 of the molar value.

- Compound: "O=C(O)c1cc(S(=O)(=O)Nc2cccc3ccccc23)c2ccccc2c1O"
  Numeric result: 3.96
- Compound: "Cc1cc(Oc2ccc(S(=O)(=O)N(CC(C)C)c3ccc(C(=O)O)c(O)c3)cc2)cc(C)c1Cl [4jc117-5 13ak]"
  Numeric result: 5.79
- Compound: "Cc1cc(CCCNc2ccc(C(=O)O)c(O)c2)cc(C)c1Cl"
  Numeric result: 4.64
- Compound: "CS(=O)(=O)NC(=O)c1ccc(N(Cc2ccccc2)S(=O)(=O)c2ccc(Oc3ccccc3)cc2)cc1O"
  Numeric result: 5.14
- Compound: "Cc1cc(Oc2ccc(N(C3CCCC3)S(=O)(=O)c3cc(C(=O)O)c(O)c4ccccc34)cc2)cc(C)c1Cl"
  Numeric result: 6.54

Give pKi for each of the items listed below.
1. O=C(O)c1cc(S(=O)(=O)Nc2ccccc2C(F)(F)F)c2ccccc2c1O
2. Cc1cc(C)cc(Oc2ccc(NS(=O)(=O)c3cc(C(=O)O)c(O)c4ccccc34)cc2)c1
3. O=C(O)c1cc(S(=O)(=O)Nc2ccc3ccccc3c2)c2ccccc2c1O

Given back:
1. 4.71
2. 6.41
3. 4.16

Give pKi for each of the items listed below.
1. Cc1cc(Oc2ccc(S(=O)(=O)N(Cc3ccccc3)c3ccc(C(=O)O)c(O)c3)cc2)cc(C)c1Cl [LC-4-118 13cc]
2. O=C(O)c1cc(S(=O)(=O)Nc2ccc(Br)cc2)c2ccccc2c1O
3. O=C(O)c1cc(S(=O)(=O)NCc2ccc(Cl)cc2)c2ccccc2c1O
4. O=C(O)c1cc(S(=O)(=O)Nc2ccc(Br)cc2Br)c2ccccc2c1O
5. Cc1cc(Oc2ccc(NS(=O)(=O)c3cc(C(=O)O)c(O)c4ccccc34)cc2)cc(C)c1Cl
6. O=C(NS(=O)(=O)c1ccccc1)c1ccc(N(Cc2ccccc2)S(=O)(=O)c2ccc(Oc3ccccc3)cc2)cc1O

Given back:
5.78
4.29
3.47
5.64
6.32
5.63

Give pKi for each of the items listed below.
1. O=C(NS(=O)(=O)c1ccc(NCC2CCOCC2)c([N+](=O)[O-])c1)c1ccc(N(Cc2ccccc2)S(=O)(=O)c2ccc(Oc3ccccc3)cc2)cc1O
2. CC(C)CN(c1ccc(OC(C)C)cc1)S(=O)(=O)c1cc(C(=O)O)c(O)c2ccccc12
3. Cc1cc(Oc2ccc(S(=O)(=O)N(c3ccc(C(=O)O)c(O)c3)C3CCCC3)cc2)cc(C)c1Cl [LC-4-104 13bc]
4. CC(C)CN(c1ccc(C(=O)O)c(O)c1)S(=O)(=O)c1ccc(-c2ccccc2)cc1 [4jc117-4 13ac]
5. CC(C)CN(c1ccc(O)c(C(=O)O)c1)S(=O)(=O)c1ccc(-c2ccccc2)cc1 [JY-5-300 18bc]

Given back:
1. 5.98
2. 5.22
3. 5.72
4. 4.97
5. 4.86

Asked: // output pKi; input O=C(O)c1cc(S(=O)(=O)NCC2CCCCC2)c2ccccc2c1O ; system Bcl-xL (Homo sapiens (Human))
Given back: 4.11
